- System: DIV17
- assay: qHTS profiling for inhibitors of Plasmodium falciparum proliferation (AID 504749); note: nearly all actives have a fitted effect of over 60% in size
- protocol conditions: P. falciparum in erythrocytes, SYBR Green DNA, 72 h; series mostly up to 28.7 µM
Records with an inconclusive call do not appear. Calls of active or inactive are those of the source. Calls come from the whole dose curve; as a rule, active = well fitted inhibition curve with a large enough effect; inconclusive = small, poorly fitted or top-dose-only effect; inactive = flat fitted curve, though single readings scatter.
Labels: yes for active, no for inactive

INSERT INTO measurements (molecule, category_label) VALUES
  ('Nc1nc2c(c(=O)[nH]1)N(C=O)[C@H](CNc1ccc(C(=O)N[C@@H](CCC(=O)O)C(=O)O)cc1)CN2', 'no'),
  ('OCC(O)C(O)C(O)CO (centres undefined)', 'no'),
  ('COc1ccc2c(c1OC)C(=O)OC2[C@H]1c2c(cc3c(c2OC)OCO3)CCN1C (some centres undefined)', 'no'),
  ('COc1cccc2c1C(=O)c1c(O)c3c(c(O)c1C2=O)C[C@@](O)(C(=O)CO)C[C@@H]3O[C@H]1C[C@H](N)[C@H](OC2CCCCO2)[C@H](C)O1 (some centres undefined)', 'yes');

###

- assay: Quantitative High-Throughput drug screen in 47 multiple myeloma cell lines against the NCATS MIPE library collection: OPM2_DSMZ cell viability assay (AID 1919872); note: nearly all actives have a fitted effect of over 30% in size
- protocol conditions: OPM2 myeloma viability, CellTiter-Glo ATP luminescence, 48 h; series mostly up to 45.8 µM
Results filed as inconclusive are left out. The source made the active and inactive calls. The call rests on the fitted dose curve; in most records, active means well fitted cell-killing curve with a large enough effect; inconclusive means small, poorly fitted or top-dose-only effect, or effect the other way; inactive means no such curve, though single readings can be large or run the other way.
Labels: active, inactive

INSERT INTO assay_data (compound, category_label) VALUES
  ('Oc1cc2c(cc1O)C1c3ccc(O)c(O)c3OCC1(O)C2 (centres undefined)', 'inactive'),
  ('OCCN1C[C@H](O)[C@@H](O)[C@H](O)[C@@H]1CO', 'inactive'),
  ('CC(=O)N1CCN(c2ccc(OCc3nn(C)c(C)c3-c3cccc4c(CCCOc5cccc6ccccc56)c(C(=O)O)n(Cc5cccnc5)c34)cc2)CC1', 'active'),
  ('Nc1nc2c(c(=O)[nH]1)N(C=O)[C@H](CNc1ccc(C(=O)N[C@@H](CCC(=O)O)C(=O)O)cc1)CN2', 'inactive'),
  ('Cn1cc(-c2ccc3ncc(Cc4ccc5ncccc5c4)n3n2)cn1', 'inactive'),
  ('Cc1cnn(C)c1C(=O)Nc1cc(Nc2ccc3c(C=Cc4ccccn4)n[nH]c3c2)ccc1F', 'active'),
  ('NC[C@H]1O[C@H](O[C@H]2[C@@H](O)[C@@H](O[C@H]3O[C@H](CO)[C@@H](O)[C@H](N)[C@@H]3O)[C@H](N)C[C@@H]2N)[C@H](N)C[C@H]1O', 'inactive'),
  ('CCCCCCCCc1ccc(CCC(N)(CO)CO)cc1', 'active'),
  ('CC(C)c1cc(C(C)C)c(CC(=O)NS(=O)(=O)Oc2c(C(C)C)cccc2C(C)C)c(C(C)C)c1', 'active');

###

- assay: Primary qHTS for small molecule stabilizers of the endoplasmic reticulum resident proteome: Secreted ER Calcium Modulated Protein (SERCaMP) assay (AID 1508630)
- protocol conditions: SH-SY5Y GLuc-SERCaMP (Gaussia luciferase released on ER calcium loss) secretion, thapsigargin, luminescence; series mostly up to 38.4 µM
Results filed as inconclusive are left out. Calls of active or inactive are those of the source. The call rests on the fitted dose curve; in most records, active means well fitted inhibition curve with a large enough effect; inconclusive means small, poorly fitted or top-dose-only effect; inactive means no such curve, though single readings can be large or run the other way.
value type: activity change, negative = inhibition

INSERT INTO results (compound, result) VALUES
  ('COc1ccc([C@@H]2CNC(=O)C2)cc1OC1CCCC1', 'inactive'),
  ('O=C(O)C[C@H](O)C[C@H](O)C=Cc1c(C2CC2)nc2ccccc2c1-c1ccc(F)cc1', 'inactive'),
  ('CC(C)n1cnc2c(NCCc3ccc(O)cc3)nc(-c3csc4ccccc34)nc21', 'inactive'),
  ('CCOC(=O)N1CCN([N+]([O-])=NOc2ccc([N+](=O)[O-])cc2C#N)CC1', 'inactive'),
  ('COc1ccc(CCC(=O)c2c(O)cc(O[C@@H]3O[C@H](CO)[C@@H](O)[C@H](O)[C@@H]3O[C@@H]3O[C@@H](C)[C@H](O)[C@@H](O)[C@@H]3O)cc2O)cc1O', 'inactive'),
  ('CCCNS(=O)(=O)Nc1ncnc(OCCOc2ncc(Br)cn2)c1-c1ccc(Br)cc1', 'inactive'),
  ('COc1ccc(S(=O)(=O)Nc2cc(-c3c(O)ccc4ccccc34)c(O)c3ccccc23)cc1', 'inactive'),
  ('c1cc(N[C@@H]2CCNC2)nc(-c2cnc3ccc(-c4cn[nH]c4)cn23)c1', 'inactive'),
  ('CC(O)(C#Cc1ccc2c(c1)N(c1nc(N)ncc1Cl)CC2)c1nccs1 (configuration not stated)', 'inactive'),
  ('NC(=O)N1CCC(CC(=O)N2CCC([C@H]3c4ncc(Br)cc4CCc4cc(Cl)cc(Br)c43)CC2)CC1', 'inactive'),
  ('CC[C@H]1OC(=O)[C@H](C)[C@@H](O[C@H]2C[C@@](C)(OC)[C@@H](O)[C@H](C)O2)[C@H](C)[C@@H](O[C@@H]2O[C@H](C)C[C@H](N(C)C)[C@@H]2O)[C@](C)(OC)C[C@@H](C)C(=O)[C@H](C)[C@@H](O)[C@]1(C)O', 'inactive'),
  ('O=C1c2cccc(O)c2C(=O)c2c(O)cc(CO)cc21', 'inactive'),
  ('CC(C)C[C@H](NC(=O)CNC(=O)c1cc(Cl)ccc1Cl)B1OC(=O)CC(CC(=O)O)(C(=O)O)O1 (some centres not stated)', 'inactive'),
  ('CCCc1nc(C(C)(C)O)c(C(=O)O)n1Cc1ccc(-c2ccccc2-c2nn[nH]n2)cc1', 'inactive'),
  ('Cn1cc(C[C@@H](N)C(=O)O)c2ccccc21', 'inactive'),
  ('COc1ccc2c(c1OC)C(=O)OC2[C@H]1c2c(cc3c(c2OC)OCO3)CCN1C (some centres not stated)', 'inactive'),
  ('C=C[C@@H]1CN2CCC1C[C@H]2[C@H](O)c1ccnc2ccc(OC)cc12 (some centres not stated)', 'inactive');

###

- assay: Quantitative High-Throughput drug screen in 47 multiple myeloma cell lines against the NCATS MIPE library collection: KMS12PE_JCRB cell viability assay (AID 1918972); note: nearly all actives have a fitted effect of over 30% in size;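 for viability: 100% = DMSO only wells and 0% = wells with media alone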
- protocol conditions: KMS12PE myeloma viability, CellTiter-Glo ATP, 48 h; series mostly up to 45.8 µM
Inconclusive results are not listed. Active and inactive are the calls of the source. Calls come from the whole dose curve; as a rule, active = well fitted cell-killing curve with a large enough effect; inconclusive = small, poorly fitted or top-dose-only effect, or effect the other way; inactive = no such curve, though single readings can be large or run the other way.
Labels: yes = active, no = inactive

INSERT INTO measurements (compound, category_label) VALUES
  ('CC(C)NC[C@@H](C(=O)N1CCN(c2ncnc3c2[C@H](C)C[C@H]3O)CC1)c1ccc(Cl)cc1', 'yes'),
  ('CC(C)OC(=O)[C@H](C)N[P@](=O)(OC[C@H]1O[C@@H](n2ccc(=O)[nH]c2=O)[C@](C)(F)[C@H]1O)Oc1ccccc1', 'no'),
  ('C=C1CCC2[C@](C)(CO)C(O)CC[C@]2(C)C1CC=C1C(=O)OCC1O (some centres undefined)', 'no'),
  ('Nc1nc2c(c(=O)[nH]1)N(C=O)[C@H](CNc1ccc(C(=O)N[C@@H](CCC(=O)O)C(=O)O)cc1)CN2', 'no');

###

Here the recorded Z-AUC is given for each entry.
- assay: qHTS drug screen for cell cycle checkpoint inhibitors in PARPi-resistant BRCA-mutant ovarian cancer cell lines. (AID 1963452)
- protocol conditions: PEO1/OlaR viability, CellTiter-Glo luminescence, 96 h; measured here: PEO4 Z-AUC; stronger effect = lower value
value type: Z-AUC

INSERT INTO results (molecule, result) VALUES
  ('O=C(Nc1ccc(Oc2ccnc3[nH]ccc23)c(F)c1)c1cccn(-c2ccc(F)cc2)c1=O', 0.646),
  ('O=c1c(O)c(-c2ccc(O)c(O)c2)oc2cc(O)ccc12', 0.0271),
  ('COc1ccc(C[C@@H](C)[C@@H](C)Cc2ccc(OC)c(OC)c2)cc1OC', 0.0624),
  ('COc1cc(C(C)C)c(Oc2cnc(NC(CO)CO)nc2N)cc1I', 1.02),
  ('CN(C)c1ccc2cc(C(=O)N[C@@H](CCCN=C(N)CCl)C(=O)NCc3ccccc3)ccc2c1', 1.03),
  ('C[C@@H](NCc1cc2ccccc2[nH]1)c1cccc2ccccc12', 0.0374),
  ('C[C@@H]1CC[C@@]2(OC1)OC1CC3C4CC=C5CC(O)CCC5(C)C4CCC3(C)C1[C@@H]2C (some centres undefined)', 0.526),
  ('CC(C)C[C@H](NC(=O)CNC(=O)c1cc(Cl)ccc1Cl)B1OC(=O)CC(CC(=O)O)(C(=O)O)O1 (some centres undefined)', -3.23),
  ('C[N+](C)([O-])CCNc1ccc(NCC[N+](C)(C)[O-])c2c1C(=O)c1c(O)ccc(O)c1C2=O', 0.857),
  ('FC(F)c1nc2ccccc2n1-c1nc(N2CCOCC2)nc(N2CCOCC2)n1', -0.858),
  ('O=C(CCCCCCC(=O)Nc1cccnc1)NO', 0.136),
  ('CC(N[C@H]1CCCC[C@H]1NC(=O)c1ccc(Cl)cc1)c1cccc2ccccc12 (some centres undefined)', 0.472),
  ('CC(Oc1ccc(O)cc1)(P(=O)(O)O)P(=O)(O)O', 0.383),
  ('CCc1ccc(C(=O)Nc2cc(CN3CCN(C)CC3)cc(C(F)(F)F)c2)cc1C#Cc1cnc2ccnn2c1', -0.914),
  ('Cc1cnc(Nc2ccc(N3CCN(C)CC3)cc2)nc1Nc1cccc(S(=O)(=O)NC(C)(C)C)c1', -0.304),
  ('C=C[C@@H]1CN2CCC1C[C@H]2[C@H](O)c1ccnc2ccc(OC)cc12 (some centres undefined)', 0.97),
  ('C[C@H]1[C@@H](OC(=O)CCC(=O)O)O[C@@H]2O[C@@]3(C)CC[C@@H]4[C@H](C)CC[C@@H]1[C@@]24OO3', -0.572),
  ('NC(=O)N1CCC(CC(=O)N2CCC([C@H]3c4ncc(Br)cc4CCc4cc(Cl)cc(Br)c43)CC2)CC1', -0.991),
  ('CCCCCCCCCCCCc1ccc(S(=O)(=O)Nc2nncs2)cc1', 0.202);

Value source: PubChem BioAssay (NCATS)
